The reported numbers originate from patent US12466813B2.

Readings of Kd for the listed compounds
Target: RING1B-BMI1 (Homo sapiens)
Sequence (Q99496 1-336): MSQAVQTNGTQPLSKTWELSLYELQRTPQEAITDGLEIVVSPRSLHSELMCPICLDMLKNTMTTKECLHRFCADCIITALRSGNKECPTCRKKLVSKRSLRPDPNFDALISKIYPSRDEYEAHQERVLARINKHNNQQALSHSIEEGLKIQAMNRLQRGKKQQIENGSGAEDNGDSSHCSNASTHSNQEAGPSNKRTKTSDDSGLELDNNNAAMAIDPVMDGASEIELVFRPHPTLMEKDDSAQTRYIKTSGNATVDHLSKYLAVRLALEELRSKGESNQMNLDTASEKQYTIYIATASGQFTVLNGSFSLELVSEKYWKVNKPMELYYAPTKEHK
Sequence (P35226 1-326 partner): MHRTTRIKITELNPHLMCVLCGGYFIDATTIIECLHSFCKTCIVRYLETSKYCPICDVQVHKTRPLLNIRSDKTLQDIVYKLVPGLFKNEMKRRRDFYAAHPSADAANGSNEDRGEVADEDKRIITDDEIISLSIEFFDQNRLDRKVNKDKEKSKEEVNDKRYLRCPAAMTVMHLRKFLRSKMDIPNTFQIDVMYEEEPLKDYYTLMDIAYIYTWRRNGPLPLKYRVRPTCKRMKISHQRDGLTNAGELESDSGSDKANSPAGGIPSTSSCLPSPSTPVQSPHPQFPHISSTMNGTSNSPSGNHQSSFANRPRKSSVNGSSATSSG
Experiment: KD classes of Table A (direct binding to Ring1B-Bmi1)
Conditions: class given in Table A

Some solved cases for reference:
[
  {
    "CPD_SMILES": "CCc1c(-c2cccc3c2ccn3C)[nH]c(C(=O)O)c1-c1ccccc1Cl",
    "Kd": "20 to 50 µM"
  },
  {
    "CPD_SMILES": "CC(C)c1c(-c2cc(F)cc3[nH]ccc23)[nH]c(C(=O)O)c1-c1cc(C(=O)O)cc2[nH]ccc12",
    "Kd": "< 20 µM"
  },
  {
    "CPD_SMILES": "CC(C)c1c(-c2cc(F)cc3[nH]ccc23)[nH]c(C(=O)O)c1-c1cccc2ncoc12",
    "Kd": "< 20 µM"
  },
  {
    "CPD_SMILES": "CC(C)c1c(-c2ccnc3[nH]ccc23)[nH]c(C(=O)O)c1-c1c(Cl)ccc2[nH]ccc12",
    "Kd": "< 20 µM"
  },
  {
    "CPD_SMILES": "COc1cc(-c2c(C(=O)O)[nH]c(-c3cc(F)cc4[nH]ccc34)c2C(C)C)c2ccn(CCNC(=O)c3nccs3)c2c1",
    "Kd": "< 20 µM"
  }
]

Tested on RING1B-BMI1 (Homo sapiens), the item CCc1c(-c2cccc3[nH]ccc23)[nH]c(C(=O)O)c1CC1CCCCC1 showed Kd equal to 20 to 50 µM

For the compound COc1cc(-c2c(C(=O)O)[nH]c(-c3cc(F)cc4[nH]ccc34)c2C(C)C)c2ccn(CC(=O)NCc3nc(C)cs3)c2c1 , the measured Kd on RING1B-BMI1 (Homo sapiens) was < 20 µM

For O=C(O)c1ccc(-c2ccccc2)s1 on RING1B-BMI1 (Homo sapiens), measured Kd was > 100 µM

----------
Target: RING1B-BMI1 (Homo sapiens, UniProt Q99496)
Assay: KD classes of Table A (direct binding to Ring1B-Bmi1)
Details: class given in Table A
MEASURED_PROPERTY: Kd

Illustrative cases are given below, each with its answer.
[
  {
    "MOLECULE": "COc1ccc(-c2c(C(=O)O)[nH]c(-c3cc(F)cc4[nH]ccc34)c2C(C)C)c2cc[nH]c12 [compound 37]",
    "MEASUREMENT_TARGET": "RING1B-BMI1 (Homo sapiens, UniProt Q99496)",
    "REPORTED_RESULT": "< 20 µM"
  },
  {
    "MOLECULE": "CCCCc1c(-c2cccc3[nH]ccc23)[nH]c(C(=O)O)c1-c1ccccc1Cl [compound 162]",
    "MEASUREMENT_TARGET": "RING1B-BMI1 (Homo sapiens, UniProt Q99496)",
    "REPORTED_RESULT": "> 100 µM"
  },
  {
    "MOLECULE": "CC(C)c1c(-c2cc(F)cc3[nH]ccc23)[nH]c(C(=O)O)c1-c1ccnc2[nH]c(-c3cc[nH]n3)cc12 [compound 249]",
    "MEASUREMENT_TARGET": "RING1B-BMI1 (Homo sapiens, UniProt Q99496)",
    "REPORTED_RESULT": "< 20 µM"
  }
]

CCc1c(-c2c(C)ccc3[nH]ccc23)[nH]c(C(=O)O)c1-c1cccc2[nH]ccc12 [compound 2] yielded Kd of < 20 µM

----------
Molecular target: RING1B-BMI1 (Homo sapiens, UniProt Q99496)
Sequence (Q99496 1-336): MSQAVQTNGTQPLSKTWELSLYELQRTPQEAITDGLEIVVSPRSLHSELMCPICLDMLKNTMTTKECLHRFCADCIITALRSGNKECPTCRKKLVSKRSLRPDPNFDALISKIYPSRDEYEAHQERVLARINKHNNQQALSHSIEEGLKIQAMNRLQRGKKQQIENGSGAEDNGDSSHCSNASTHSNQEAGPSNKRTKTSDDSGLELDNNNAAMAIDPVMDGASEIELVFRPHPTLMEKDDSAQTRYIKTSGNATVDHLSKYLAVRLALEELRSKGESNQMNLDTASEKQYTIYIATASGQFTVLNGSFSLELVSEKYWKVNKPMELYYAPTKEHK
Sequence (P35226 1-326 partner): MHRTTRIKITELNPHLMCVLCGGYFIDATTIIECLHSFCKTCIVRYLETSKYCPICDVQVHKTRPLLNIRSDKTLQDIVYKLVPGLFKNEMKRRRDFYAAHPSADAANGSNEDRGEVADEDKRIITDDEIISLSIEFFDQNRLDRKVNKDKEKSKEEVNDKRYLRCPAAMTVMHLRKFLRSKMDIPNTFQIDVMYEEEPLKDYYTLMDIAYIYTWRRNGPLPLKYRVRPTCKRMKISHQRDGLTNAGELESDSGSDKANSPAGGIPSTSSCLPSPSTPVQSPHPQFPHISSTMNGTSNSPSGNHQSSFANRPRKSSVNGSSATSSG
Assay: KD classes of Table A (direct binding to Ring1B-Bmi1)
Details: class given in Table A
pKd: −log10 of the molar value.
MEASURED_PROPERTY: pKd

Examples from the recorded data:
[
  {
    "COMPOUND": "Cc1ccccc1-c1ccc(C(=O)O)[nH]1",
    "MEASUREMENT_TARGET": "RING1B-BMI1 (Homo sapiens, UniProt Q99496)",
    "pKd": "< 4.00"
  },
  {
    "COMPOUND": "CC(C)c1c(-c2cc(F)cc3[nH]ccc23)[nH]c(C(=O)O)c1-c1cccc2[nH]c(-c3cc(O)no3)cc12",
    "MEASUREMENT_TARGET": "RING1B-BMI1 (Homo sapiens, UniProt Q99496)",
    "pKd": "> 4.70"
  },
  {
    "COMPOUND": "CC(C)c1c(-c2cc(F)cc3[nH]ccc23)[nH]c(C(=O)O)c1-c1ccnc2[nH]c(C3=CCN(S(C)(=O)=O)CC3)cc12",
    "MEASUREMENT_TARGET": "RING1B-BMI1 (Homo sapiens, UniProt Q99496)",
    "pKd": "> 4.70"
  }
]

Item: CC(c1c(-c2cccc3[nH]ccc23)[nH]c(C(=O)O)c1-c1cccc2[nH]ccc12)C(F)F (stereo not drawn) | pKd: > 4.70

For this compound ( CC(C)c1c(-c2cc(F)cc3[nH]ccc23)[nH]c(C(=O)O)c1-c1cccc2[nH]c(C(N)=O)cc12 ), measured pKd is > 4.70

Query CCc1c(-c2cccc3[nH]ccc23)[nH]c(C(=O)O)c1-c1cccc2c1ccn2CCO yields pKd of 4.30 to 4.70

Value of pKd reported for the compound CC(C)c1cc(-c2c(C(=O)O)[nH]c(-c3cc(F)cc4[nH]ccc34)c2C(C)C)c2ccn(CC(=O)O)c2c1 is > 4.70

The recorded pKd for CC(C)c1c(-c2cc(F)cc3[nH]ccc23)[nH]c(C(=O)O)c1-c1cccc2nc[nH]c12 is > 4.70

The compound CCc1c(-c2cccc3[nH]ccc23)[nH]c(C(=O)O)c1-c1ccc(C)cc1 showed pKd equal to 4.00 to 4.30

Sample CC(C)c1c(-c2cc(F)cc3[nH]ccc23)[nH]c(C(=O)O)c1-c1ccnc2[nH]c(-c3ccsc3)cc12 ; pKd observed: > 4.70

The measured pKd associated with CCc1c[nH]c2cc(OC)cc(-c3c(C(=O)O)[nH]c(-c4cc(F)cc5[nH]ccc45)c3C(C)C)c12 reads > 4.70

Recorded result, CCc1c(-c2cccc3[nH]ccc23)[nH]c(C(=O)O)c1-c1ccccc1-c1ccccc1 , pKd: 4.00 to 4.30

Given item COc1ccc(-c2c(C(=O)O)[nH]c(-c3cc(F)cc4[nH]ccc34)c2C(C)C)c(F)c1 , the value recorded as its pKd is > 4.70

Lab book: pKd of COc1ccc(OC)c(-c2ccc(C(=O)O)[nH]2)c1 noted as < 4.00

Looking up CC(C)c1c(-c2cc(F)cc3[nH]ccc23)[nH]c(S(N)(=O)=O)c1-c1cccc2[nH]ccc12 , I see its pKd listed as > 4.70
